Target: T1, S100A1 (Homo sapiens), P23297
T1 chain: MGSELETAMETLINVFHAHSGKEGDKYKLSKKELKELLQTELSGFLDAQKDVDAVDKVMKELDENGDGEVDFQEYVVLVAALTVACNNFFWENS
Assay: steady-state fluorescence anisotropy
Settings: modification not given
REPORTED_ENDPOINT: Kd (µM)

Example binders with recorded Kd:
| BINDER | Kd [µM] |
| --- | --- |
| LIGRAYRSNYTAAHFR [TRPM6np K532A/R531A 520-535, Q9BX84] | 50.2 |
| LIGRAYASNYTAAHFA [TRPM6np K532A/R531A/R535A/R526A 520-535, Q9BX84] | 130 |

(P) LIGRAYRSNYTAAHFA [TRPM6np K532A/R531A/R535A 520-535, Q9BX84]
(Q) LIGRAYRSNYTRAHFR [TRPM6np K532A 520-535, Q9BX84]
Smaller Kd value? Options are P and Q Please respond with the label that marks your chosen entry.
Q
(Q: 24.8 µM, P: 81.8 µM)

Cited source for all entries: paper PMC6770577
